# TESTED TARGET: Prostaglandin G/H synthase 2 (Homo sapiens, UniProt P35354)
# Sequence (P35354 whole entry): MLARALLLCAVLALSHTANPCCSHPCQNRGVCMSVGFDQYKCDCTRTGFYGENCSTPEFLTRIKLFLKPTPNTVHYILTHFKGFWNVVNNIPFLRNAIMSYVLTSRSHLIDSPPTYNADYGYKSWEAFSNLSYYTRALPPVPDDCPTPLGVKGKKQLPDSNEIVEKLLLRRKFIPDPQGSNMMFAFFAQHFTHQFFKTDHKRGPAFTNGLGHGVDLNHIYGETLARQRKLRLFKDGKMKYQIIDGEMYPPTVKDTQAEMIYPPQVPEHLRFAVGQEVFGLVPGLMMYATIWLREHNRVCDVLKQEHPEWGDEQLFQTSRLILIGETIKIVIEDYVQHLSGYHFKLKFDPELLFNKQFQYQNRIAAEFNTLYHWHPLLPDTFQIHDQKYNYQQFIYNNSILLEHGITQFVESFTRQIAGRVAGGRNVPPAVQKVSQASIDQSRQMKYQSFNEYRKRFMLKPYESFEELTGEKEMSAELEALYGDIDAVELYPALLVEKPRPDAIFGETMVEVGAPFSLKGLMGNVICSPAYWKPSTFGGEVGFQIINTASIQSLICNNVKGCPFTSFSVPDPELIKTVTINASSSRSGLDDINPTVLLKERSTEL
Measured IC50 accompanies every entry in the list below.
PARAMETER MEASURED: IC50 (µM)

- COMPOUND: "O=S(=O)(c1ccccc1)N1N=C(C(F)(F)F)CC1c1ccc2ccccc2c1 (configuration not stated)"
  UNIT: "µM"
  COMPARATIVE SIGN: "="
  OBSERVED VALUE: 174
- COMPOUND: "Cc1ccc(S(=O)(=O)N2N=C(C(F)(F)F)CC2c2cccc3c2OCCO3)cc1 (configuration not stated)"
  UNIT: "µM"
  COMPARATIVE SIGN: ">"
  OBSERVED VALUE: 500

Where do the numbers come from? From ChEMBL document CHEMBL3352811.
